targetSystem: PHD1 (EGLN2) (Homo sapiens (Human), UniProt Q96KS0)
Sequence (Q96KS0 whole entry): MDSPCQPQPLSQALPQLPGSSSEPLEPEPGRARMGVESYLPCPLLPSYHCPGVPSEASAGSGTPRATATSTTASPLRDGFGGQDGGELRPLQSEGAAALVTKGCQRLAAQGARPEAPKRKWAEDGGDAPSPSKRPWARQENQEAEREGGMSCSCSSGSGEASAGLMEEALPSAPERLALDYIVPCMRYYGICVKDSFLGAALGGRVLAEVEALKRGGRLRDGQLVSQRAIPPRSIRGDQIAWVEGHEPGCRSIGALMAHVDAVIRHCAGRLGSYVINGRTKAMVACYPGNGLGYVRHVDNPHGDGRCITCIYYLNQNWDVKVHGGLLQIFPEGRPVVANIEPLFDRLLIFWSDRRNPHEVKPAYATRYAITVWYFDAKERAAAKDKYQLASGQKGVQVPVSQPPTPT
methodNotes: HIF-PH assay (14CO2 capture), PHD1 enzyme inhibition
Type: biochemical
measurementSetup: Table 1; individual measurement; read-out: IC50 (μM) PHD1
readout: IC50

Worked cases, IC50 given:
>>> observedvalue("N#Cc1nc(C(=O)N[C@H](Cc2ccccc2)[C@H](O)C(=O)O)c(O)c2ccc(Oc3ccccc3)cc12")
"1.55 µM"
>>> observedvalue("CO[C@@H](CCNC(=O)c1nc(C#N)c2cc(Oc3ccccc3)ccc2c1O)C(=O)O")
"0.31 µM"
>>> observedvalue("N#Cc1nc(C(=O)NCC(F)(F)C(=O)O)c(O)c2ccc(Oc3ccccc3)cc12")
"0.73 µM"
>>> observedvalue("CC[C@H](CC(=O)O)NC(=O)c1nc(C#N)c2cc(Oc3ccccc3)ccc2c1O")
"2.82 µM"
>>> observedvalue("N#Cc1nc(C(=O)NCCC(=O)O)c(O)c2ccc(-c3ccccc3)cc12")
"0.61 µM"
>>> observedvalue("N#Cc1nc(C(=O)NCC[C@@H](NC(N)=O)C(=O)O)c(O)c2ccc(Oc3ccccc3)cc12")
"1.1 µM"

The recorded IC50 for entry CCCC(CNC(=O)c1nc(C#N)c2cc(Oc3ccccc3)ccc2c1O)C(=O)O (stereo not drawn) equals 3.39 µM

Briefly, IC50 measured for CC(C)(CNC(=O)c1nc(C#N)c2cc(Oc3ccccc3)ccc2c1O)CC(=O)O : 2.86 µM

// IC50 lookup, molecule = O=C(O)CCCNC(=O)c1ncc2cc(NC(=O)NC3CCCCC3)ccc2c1O , result: 3.16 µM

Lookup result for CC(C)(CNC(=O)c1nc(C#N)c2cc(Oc3cccc(F)c3)ccc2c1O)C(=O)O ; measured IC50: 0.36 µM

So, C[C@@H](NC(=O)c1nc(C#N)c2cc(Oc3ccccc3)ccc2c1O)[C@@H](C)C(=O)O ? Its IC50 was 2.43 µM

The molecule listed as CC(C)(CNC(=O)c1nc(C#N)c2cc(OCc3ccccc3)ccc2c1O)C(=O)O shows IC50 equal to 2.58 µM

Form: molecule = N#Cc1nc(C(=O)NCCC(=O)C(=O)O)c(O)c2ccc(Oc3ccccc3)cc12 ; IC50 = 0.26 µM

Value of measured IC50 for the entry O=C(O)CCCNC(=O)c1ncc2cc(-c3ccc(F)cc3)ccc2c1O : 2.88 µM

Entry Cc1cccc(C)c1Oc1ccc2c(C#N)nc(C(=O)NCCCCC(=O)O)c(O)c2c1 , IC50 reported as 10.5 µM

For this molecule ( CC(C)(CNC(=O)c1nc(-c2ccccc2)c2cc(Oc3ccccc3)ccc2c1O)C(=O)O ), measured IC50 is 11.1 µM

The value of IC50 measured for the molecule N#Cc1nc(C(=O)NCC[C@@H](N)C(=O)O)c(O)c2ccc(Oc3ccccc3)cc12 turned out to be 5.19 µM

The measured IC50 associated with O=C(O)CCCNC(=O)c1ncc2cc(NC(=O)NCc3ccccc3)ccc2c1O reads 2.15 µM

The value of IC50 measured for the molecule COc1ccc(Oc2ccc3c(O)c(C(=O)NC[C@H](O)C(=O)O)ncc3c2)cc1 turned out to be 0.79 µM

Lab note: N#Cc1nc(C(=O)NCC2(CC(=O)O)CCCCC2)c(O)c2ccc(Oc3ccccc3)cc12 gave IC50 of 5.93 µM
